tested on: cardiomyocytic cell line derived from human ventricular heart tissue; experiment: Cell viability in cardiomyocyte compound screen (CellTiter-Glo); format: cell-based; conditions: Table 22; dose 10 nM; cardiomyocytes, 24 hours
MEASURED_PROPERTY: Viability (%)
# unit: % | format: bare number

**Q:** Recorded Viability for CC(N)=NCc1cccc(CN)c1.Cl.Cl [1400W dihydrochloride] , please?
**A:** 100

**Q:** Now consider O=C(Nc1ccncc1)c1cc([N+](=O)[O-])ccc1Cl [Compound T0070907] and answer again.
**A:** 100

###

tested on: cardiomyocytic cell line derived from human ventricular heart tissue; assay: Cell viability in cardiomyocyte compound screen (CellTiter-Glo); assay type: cell-based; settings: Table 23 (down-regulators); dose 1000 nM; cardiomyocytes
Counter-ions that a name gives are not always drawn.
Each entry below carries its reported Viability.

| COMPOUND | SYSTEM | VAL |
| --- | --- | --- |
| CC(N)=NCc1cccc(CN)c1.Cl.Cl [1400W dihydrochloride] | cardiomyocytic cell line derived from human ventricular heart tissue | 100.0% |
| Cn1cnc(N)c2ncnc1-2 | cardiomyocytic cell line derived from human ventricular heart tissue | >75% |
| CCCCCCCCCCCCCCOc1ccc(C(=O)O)o1 | cardiomyocytic cell line derived from human ventricular heart tissue | >75% |

**Q:** Recorded Viability for O=C(O)CC[N+](=O)[O-] [3-Nitropropanoic acid, reference compound] , please?
**A:** >75%

**Q:** Now consider CN(C)CCCSC(=N)N [Dimaprit dihydrochloride] and answer again.
**A:** >75%
